# System: morningglory
# Method summary: Test B pre/postemergence morningglory
# Format: in vivo, Ipomoea hederacea
# Condition set: Rate 500 g/ha, Postemergence; scale 0 to 10, 0 no effect, 10 complete control
Provide the recorded Morningglory plant response rating for the entries that follow.
Numbers only.

Sample records with Morningglory plant response rating:
{"columns": ["Compound", "Morningglory plant response rating"],
 "data": [
  ["Cc1cccc(C)c1-n1c(=O)on(C(=O)N(c2ccc(Cl)cc2)C(C)C)c1=O [Compound 47]", 6],
  ["CC(C)N(C(=O)n1oc(=O)n(CCC2OCCCO2)c1=O)c1ccc(F)cc1 [Compound 255]", 8],
  ["CCN(CC)C(=O)n1oc(=O)n(Cc2cccs2)c1=O [Compound 77]", 0],
  ["CC(C)N(C(=O)n1oc(=O)n(-c2ccnn2C)c1=O)c1ccc(F)cc1 [Compound 124]", 2]
]}

Prompt: Read the entry CCCn1c(=O)on(C(=O)N(c2ccc(F)cc2)C(C)C)c1=O [Compound 91] and write its reported Morningglory plant response rating.
Response: 9

* * *

# System: wheat
# Method summary: Test B pre/postemergence wheat
# Type: in vivo, Triticum aestivum
# Condition set: Rate 500 g/ha, Preemergence; scale 0 to 10 (0 no effect, 10 complete control)
Provide the recorded Wheat plant response rating for the entries that follow.

Look at each compound and report its Wheat plant response rating.
1. Cc1nc(C(C)n2c(=O)on(C(=O)N(c3ccc(F)cc3)C(C)C)c2=O)sc1C (stereo not drawn)
2. C#CCn1c(=O)on(C(=O)N(c2ccccc2)C(C)C)c1=O
3. CC(C)N(C(=O)n1oc(=O)n(C(C)C2CCC2)c1=O)c1ccc(F)cc1 (stereo not drawn)
4. CON=CC(C)n1c(=O)on(C(=O)N(c2ccccc2)C(C)C)c1=O (stereo not drawn)
5. CC(C)N(C(=O)n1oc(=O)n(CCN(C)C(=O)c2ccccc2)c1=O)c1ccc(F)cc1F
6. CC(C)N(C(=O)n1oc(=O)n(CCCCl)c1=O)c1ccc(Cl)cc1

Response:
3
9
2
9
0
1

* * *

Provide the recorded Nutsedge plant response rating for the entries that follow.
# Tested on: purple nutsedge
# Method summary: Test B pre/postemergence purple nutsedge
# Type: in vivo, Cyperus rotundus
# Condition set: Rate 500 g/ha, Postemergence; scale 0 to 10

Sample records with Nutsedge plant response rating:
{"columns": ["Sample smiles", "Nutsedge plant response rating"],
 "data": [
  ["COc1nc(OC)nc(N(C(=O)n2oc(=O)n(-c3ccccc3C)c2=O)C(C)C)n1", 0],
  ["CC(C)N(C(=O)n1oc(=O)n(C(C)C)c1=O)c1ccc(F)cc1", 2],
  ["C=CCn1c(=O)on(C(=O)N(c2ccc(F)cc2F)C(C)C)c1=O", 5],
  ["C=C(C)CCn1c(=O)on(C(=O)N(c2ccc(F)cc2)C(C)C)c1=O", 0],
  ["Cc1ccccc1-n1c(=O)on(C(=O)N(c2ccc(Cl)cc2Cl)C(C)C)c1=O", 0]
]}

Pending molecule:
Prompt: Read the entry CSc1ccc(N(C(=O)n2oc(=O)n(-c3ccccc3C)c2=O)C(C)C)cc1 and write its reported Nutsedge plant response rating.
Response: 0

* * *

# Test system: pigweed
# Method summary: Test B pre/postemergence pigweed
# Type: in vivo, Amaranthus retroflexus
# Condition set: Preemergence, Rate 62 g/ha; scale of 0 to 10 where 0 is no effect and 10 is complete control
Value kind: Redroot pigweed plant response rating

{"columns": ["Molecule", "Value kind", "Recorded measurement"],
 "data": [
  ["Cc1ccccc1-n1c(=O)on(C(=O)N(c2ccc(OC(F)(F)F)cc2)C(C)C)c1=O", "Redroot pigweed plant response rating", 0],
  ["CC(=O)OCC(CCl)n1c(=O)on(C(=O)N(c2ccc(F)cc2F)C(C)C)c1=O (racemic)", "Redroot pigweed plant response rating", 0],
  ["CC[C@H](C)n1c(=O)on(C(=O)N(c2ccc(F)cc2F)C(C)C)c1=O", "Redroot pigweed plant response rating", 8]
]}

Prompt: Read the entry CC(C)N(C(=O)n1oc(=O)n(C(C)C(=S)N(C)C)c1=O)c1ccccc1 (stereo not shown) and write its reported Redroot pigweed plant response rating.
Response: 0
